Values compiled from patent US20250059164A1.

# Experimental target: IRAK4 (Homo sapiens, UniProt Q9NWZ3)
# Construct: endogenous in cells; host or cells: OCI-LY10
# Sequence (Q9NWZ3 whole entry): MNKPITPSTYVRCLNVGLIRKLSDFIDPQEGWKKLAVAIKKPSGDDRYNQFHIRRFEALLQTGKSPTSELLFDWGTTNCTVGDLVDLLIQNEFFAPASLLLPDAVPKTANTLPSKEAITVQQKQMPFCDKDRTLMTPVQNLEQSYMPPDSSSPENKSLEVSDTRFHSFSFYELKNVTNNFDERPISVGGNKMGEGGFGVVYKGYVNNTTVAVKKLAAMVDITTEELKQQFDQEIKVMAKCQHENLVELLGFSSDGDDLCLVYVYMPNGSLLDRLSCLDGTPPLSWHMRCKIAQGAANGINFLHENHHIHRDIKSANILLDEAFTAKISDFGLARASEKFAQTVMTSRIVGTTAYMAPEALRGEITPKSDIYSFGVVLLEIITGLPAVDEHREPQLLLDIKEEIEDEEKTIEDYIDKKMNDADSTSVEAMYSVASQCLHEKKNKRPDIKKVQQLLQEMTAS
# Assay notes: IRAK4 MSD degradation in OCI-LY10
# Assay type: cell-based
# Condition description: OCI-LY10 cells, 24 hrs, Meso Scale Discovery
Property name: DC50

Need DC50, item Cn1c(=O)n(C2CCC(=O)NC2=O)c2cccc(N3CC(C4CCN([C@H]5CC[C@H](n6cc(NC(=O)c7cnn8ccc(N9C[C@H]%10C[C@@H]9CO%10)nc78)c(C(F)F)n6)CC5)CC4(F)F)C3)c21 (some centres unmarked) [I-115] < 10 nM

Same read-out for Cc1nn(C2CCC(=O)NC2=O)c2cccc(N3CC(CN4CCN(C[C@H]5CC[C@H](n6cc(NC(=O)c7cnn8ccc(N9C[C@H]%10C[C@@H]9CO%10)nc78)c(C(F)F)n6)CC5)CC4)C3)c12 (some centres unmarked) [I-45] ? < 10 nM

Thanks! And COc1cc2nc([C@H]3CC[C@H](CN4CC[C@H](c5cccc6c5n(C)c(=O)n6C5CCC(=O)NC5=O)C(F)(F)C4)CC3)sc2cc1NC(=O)c1cncc(C#N)c1 (single isomer, unassigned) [I-140] ? > 200 nM

Param item: COc1ccc2c(c1N1CC[C@H](N(C)C[C@H]3CC[C@H](n4cc(NC(=O)c5cnn6cccnc56)c(C(F)F)n4)CC3)C(F)(F)C1)n(C)c(=O)n2C1CCC(=O)NC1=O (single isomer, unassigned) [I-289] < 10 nM

Now consider Cn1c(=O)n(C2CCC(=O)NC2=O)c2cccc([C@H]3CCN(C[C@H]4CC[C@H](c5nc6cc(C(C)(C)O)c(NC(=O)c7cncc(C(F)(F)F)n7)cc6o5)CC4)CC3(F)F)c21 (single isomer, unassigned) [I-328] and answer again. 10 to 100 nM

* * *

Measured DC50 by item
# Experimental target: IRAK4 (Homo sapiens, UniProt Q9NWZ3)
# Construct: endogenous in cells; host or cells: OCI-LY10
# Assay notes: IRAK4 MSD degradation in OCI-LY10
# Type: cell-based
# Condition description: OCI-LY10 cells, 24 hrs, Meso Scale Discovery

Record excerpt, results attached:
{"Molecule": "Cc1cc(C(=O)Nc2ccc3nn([C@H]4CC[C@H](CN5CCC6(CCN(c7cccc8c7n(C)c(=O)n8C7CCC(=O)NC7=O)CC6)C(F)(F)C5)CC4)cc3c2)nc(C(F)(F)F)c1 (stereo partly drawn) [I-403]", "Experimental target": "IRAK4 (Homo sapiens, UniProt Q9NWZ3)", "DC50": "> 200 nM"}
{"Molecule": "Cc1nn(C2CCC(=O)NC2=O)c2cc(F)cc(N3CC(CN4CCN(C[C@H]5CC[C@H](n6cc(NC(=O)c7cnn8ccc(N9C[C@H]%10C[C@@H]9CO%10)nc78)c(C(F)F)n6)CC5)CC4)C3)c12 (stereo partly drawn) [I-92]", "Experimental target": "IRAK4 (Homo sapiens, UniProt Q9NWZ3)", "DC50": "< 10 nM"}

Look at this molecule and give its reported DC50. COc1ccc2c(c1N1CC3(CCN(C[C@H]4CC[C@H](c5nc6cc(C(C)(C)O)c(NC(=O)c7cccc(C(F)(F)F)n7)cc6s5)CC4)CC3(F)F)C1)n(C)c(=O)n2C1CCC(=O)NC1=O (stereo partly drawn) [I-414] > 200 nM
